# assayed.system: human IGF-1R (NIH-3T3 cells over expressing human IGF-1R) (Homo sapiens)
# Sequence (P08069 31-1367): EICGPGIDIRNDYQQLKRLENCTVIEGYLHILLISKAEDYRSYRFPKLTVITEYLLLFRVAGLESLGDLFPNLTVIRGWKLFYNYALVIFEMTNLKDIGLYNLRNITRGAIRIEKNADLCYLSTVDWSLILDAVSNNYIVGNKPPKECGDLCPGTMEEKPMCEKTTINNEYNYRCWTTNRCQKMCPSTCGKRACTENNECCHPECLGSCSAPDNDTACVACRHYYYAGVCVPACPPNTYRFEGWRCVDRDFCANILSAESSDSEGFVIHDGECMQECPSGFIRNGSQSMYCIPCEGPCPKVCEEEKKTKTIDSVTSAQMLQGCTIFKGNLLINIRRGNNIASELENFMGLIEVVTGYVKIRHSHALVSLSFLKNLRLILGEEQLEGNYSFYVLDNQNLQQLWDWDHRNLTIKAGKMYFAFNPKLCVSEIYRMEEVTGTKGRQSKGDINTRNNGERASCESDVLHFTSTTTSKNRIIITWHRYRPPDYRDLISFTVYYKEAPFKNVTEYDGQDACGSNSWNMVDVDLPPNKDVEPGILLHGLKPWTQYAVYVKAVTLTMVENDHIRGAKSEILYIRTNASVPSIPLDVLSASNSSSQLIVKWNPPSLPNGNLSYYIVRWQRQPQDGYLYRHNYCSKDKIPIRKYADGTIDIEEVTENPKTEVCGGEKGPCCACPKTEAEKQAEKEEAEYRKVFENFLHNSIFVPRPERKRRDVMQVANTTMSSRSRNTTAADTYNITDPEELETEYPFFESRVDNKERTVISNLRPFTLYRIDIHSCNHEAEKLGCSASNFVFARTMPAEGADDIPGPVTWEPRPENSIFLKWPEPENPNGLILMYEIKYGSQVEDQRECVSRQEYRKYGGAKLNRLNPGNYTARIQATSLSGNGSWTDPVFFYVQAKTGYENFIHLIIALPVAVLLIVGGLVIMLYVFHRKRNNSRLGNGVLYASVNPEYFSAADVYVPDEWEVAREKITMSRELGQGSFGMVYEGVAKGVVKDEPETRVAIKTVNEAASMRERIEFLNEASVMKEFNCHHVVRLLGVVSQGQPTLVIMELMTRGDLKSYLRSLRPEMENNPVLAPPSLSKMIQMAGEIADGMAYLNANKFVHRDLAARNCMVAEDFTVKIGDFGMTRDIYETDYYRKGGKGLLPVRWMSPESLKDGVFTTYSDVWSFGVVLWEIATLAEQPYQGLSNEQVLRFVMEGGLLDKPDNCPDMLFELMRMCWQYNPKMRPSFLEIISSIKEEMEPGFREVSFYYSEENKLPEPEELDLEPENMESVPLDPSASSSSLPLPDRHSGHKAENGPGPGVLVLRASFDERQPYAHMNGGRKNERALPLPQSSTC
# test.description: IGF-1R cellular autophosphorylation (DELFIA)
# stated.conditions: IGF-1 stimulated
readout.type: IC50

CCCN1CCN(c2ccc(Nc3nccc(-c4c(-c5cccc(C(=O)Nc6c(F)cccc6F)c5)nc5ccccn45)n3)c(OC)c2)CC1	< 100 nM
COc1cc(N2CCC(C3CCN(CCF)CC3)CC2)ccc1Nc1nccc(-c2c(-c3ccc(OC)c(C(=O)Nc4c(F)cccc4F)c3)nc3ccccn23)n1	< 100 nM

// next item, IC50 requested
Task: Send back human IGF-1R (NIH-3T3 cells over expressing human IGF-1R) (Homo sapiens) IC50 of COc1cc(N2CCC(C3CCN(CCS(C)(=O)=O)CC3)CC2)ccc1Nc1nccc(-c2c(-c3cccc(C(=O)Nc4c(F)cccc4F)c3)nc3ccccn23)n1 only.
Result: < 100 nM

====

# System: various cell lines of different tumor origins
# test.description: Inhibition of cell proliferation, InCell Analyzer assay
# Format: cell-based
# stated.conditions: SR, lymphoma - large cell immunoblastic
readout.type: IC50

Task: Give a short answer stating reported IC50 for COc1cc(N2CCC(N3CCCCC3)CC2)ccc1Nc1nccc(-c2c(-c3cccc(C(=O)Nc4c(F)cccc4F)c3)nc3ccccn23)n1 [Example 22] .
Result: 1 to 5 µM

====

# Tested on: various cell lines of different tumor origins
# test.description: Inhibition of cell proliferation, InCell Analyzer assay
# Format: cell-based
# stated.conditions: Homo sapiens, Detroit 562, Detroit562, H&N
readout.type: IC50

Task: Tell us which IC50 value is on record for COc1cc(N2CCC(N3CCCCC3)CC2)ccc1Nc1nccc(-c2c(-c3cccc(C(=O)Nc4c(F)cccc4F)c3)nc3ccccn23)n1 [Example 22]
Result: 1000 to 5000 nM

====

# assayed.system: IR (NIH-3T3 cells over expressing human IGF-1R or IR) (Homo sapiens, UniProt P06213)
# Sequence (P06213 28-1382): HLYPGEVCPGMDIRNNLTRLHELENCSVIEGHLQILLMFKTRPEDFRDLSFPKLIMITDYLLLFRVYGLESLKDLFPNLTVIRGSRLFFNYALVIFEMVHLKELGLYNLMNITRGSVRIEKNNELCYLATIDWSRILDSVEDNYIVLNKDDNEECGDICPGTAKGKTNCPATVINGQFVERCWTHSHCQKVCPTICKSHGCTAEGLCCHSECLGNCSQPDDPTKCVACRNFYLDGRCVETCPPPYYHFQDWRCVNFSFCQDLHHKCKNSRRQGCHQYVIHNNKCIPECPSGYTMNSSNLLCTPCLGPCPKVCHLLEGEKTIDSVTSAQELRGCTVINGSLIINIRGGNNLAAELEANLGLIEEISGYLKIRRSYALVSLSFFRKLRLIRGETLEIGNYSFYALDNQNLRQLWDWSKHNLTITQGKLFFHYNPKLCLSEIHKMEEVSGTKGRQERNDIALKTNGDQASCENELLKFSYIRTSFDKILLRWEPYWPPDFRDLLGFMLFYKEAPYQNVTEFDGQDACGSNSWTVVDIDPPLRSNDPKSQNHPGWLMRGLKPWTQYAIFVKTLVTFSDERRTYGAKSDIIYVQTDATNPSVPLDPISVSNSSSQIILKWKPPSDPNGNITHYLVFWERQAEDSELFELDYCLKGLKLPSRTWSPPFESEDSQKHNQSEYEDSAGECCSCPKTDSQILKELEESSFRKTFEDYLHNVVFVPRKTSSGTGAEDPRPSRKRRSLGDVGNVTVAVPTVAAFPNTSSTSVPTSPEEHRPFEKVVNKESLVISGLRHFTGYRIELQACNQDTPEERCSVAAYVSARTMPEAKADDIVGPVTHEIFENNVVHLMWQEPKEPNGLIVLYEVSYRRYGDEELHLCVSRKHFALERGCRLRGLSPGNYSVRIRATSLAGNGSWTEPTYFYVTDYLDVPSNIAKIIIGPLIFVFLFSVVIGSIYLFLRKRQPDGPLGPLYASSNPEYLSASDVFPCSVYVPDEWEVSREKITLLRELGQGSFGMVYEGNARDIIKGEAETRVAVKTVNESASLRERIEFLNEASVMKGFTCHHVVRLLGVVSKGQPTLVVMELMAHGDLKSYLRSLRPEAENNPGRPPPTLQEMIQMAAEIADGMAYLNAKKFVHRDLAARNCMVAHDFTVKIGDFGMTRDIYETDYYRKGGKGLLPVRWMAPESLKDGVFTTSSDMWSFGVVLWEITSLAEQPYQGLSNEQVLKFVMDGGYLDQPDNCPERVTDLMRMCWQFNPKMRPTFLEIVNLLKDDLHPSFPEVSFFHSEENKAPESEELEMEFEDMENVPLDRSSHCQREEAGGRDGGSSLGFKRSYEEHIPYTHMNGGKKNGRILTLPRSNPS
# test.description: IR cellular autophosphorylation (DELFIA)
# stated.conditions: NIH-3T3 cells over expressing IR, insulin stimulated
pIC50: −log10 of the molar value.
readout.type: pIC50

These solved cases illustrate the format of a correct answer.
COc1cc(N2CCN(CCS(C)(=O)=O)CC2)ccc1Nc1nccc(-c2c(-c3ccc(OC)c(C(=O)Nc4c(F)cccc4F)c3)nc3ccccn23)n1	> 7.00
COc1cc(N2CCC(CN3CCCCC3)CC2)ccc1Nc1nccc(-c2c(-c3cccc(C(=O)Nc4c(F)cccc4F)c3)nc3ccccn23)n1	> 7.00
COCCN1CCN(c2ccc(Nc3nccc(-c4c(-c5ccc(OC)c(C(=O)Nc6c(F)cccc6F)c5)nc5ccccn45)n3)c(OC)c2)CC1	> 7.00
Cc1cc(OC2CCN(CCS(C)(=O)=O)CC2)ccc1Nc1nccc(-c2c(-c3cccc(C(=O)Nc4c(F)cccc4F)c3)nc3ccccn23)n1	6.30 to 7.00
COc1cc(N2CCC(N3CCN(CCF)C(=O)C3)CC2)ccc1Nc1nccc(-c2c(-c3cccc(C(=O)Nc4c(F)cccc4F)c3)nc3ccccn23)n1	> 7.00
COc1cc(N2CCC(N3CCCCC3)CC2)c(C)cc1Nc1nccc(-c2c(-c3ccc(OC)c(C(=O)Nc4c(F)cccc4F)c3)nc3ccccn23)n1	> 7.00
COc1cc(N2CCC(N3CCN(S(C)(=O)=O)CC3)CC2)ccc1Nc1nccc(-c2c(-c3cccc(C(=O)Nc4c(F)cccc4F)c3)nc3c(F)cccn23)n1	6.30 to 7.00
COc1cc(N2CCC(N3CCC(O)CC3)CC2)ccc1Nc1nccc(-c2c(-c3cccc(C(=O)Nc4c(F)cccc4F)c3)nc3ccccn23)n1	> 7.00

Task: Please tell me the measured pIC50 for COc1cc(N2CCC(N3CCN(C)CC3)CC2)ccc1Nc1nccc(-c2c(-c3cccc(C(=O)Nc4c(F)cccc4F)c3)nc3ccccn23)n1 ; system: IR (NIH-3T3 cells over expressing human IGF-1R or IR) (Homo sapiens, UniProt P06213).
Result: > 7.00

Task: Give pIC50 for Cc1cc(OC2CCNCC2)ccc1Nc1nccc(-c2c(-c3cccc(C(=O)Nc4c(F)cccc4F)c3)nc3ccccn23)n1 tested on IR (NIH-3T3 cells over expressing human IGF-1R or IR) (Homo sapiens, UniProt P06213).
Result: < 6.30

Task: Give pIC50 for COc1cc(N2CCN3CCOC[C@@H]3C2)ccc1Nc1nccc(-c2c(-c3ccc(OC)c(C(=O)Nc4c(F)cccc4F)c3)nc3ccccn23)n1 tested on IR (NIH-3T3 cells over expressing human IGF-1R or IR) (Homo sapiens, UniProt P06213).
Result: > 7.00

Task: Jot down pIC50 (IR (NIH-3T3 cells over expressing human IGF-1R or IR) (Homo sapiens, UniProt P06213)) of COc1cc(N2CCC(N3C[C@@H](C)O[C@@H](C)C3)CC2)ccc1Nc1nccc(-c2c(-c3cccc(C(=O)Nc4c(F)cccc4F)c3)nc3ccccn23)n1 .
Result: 6.30 to 7.00

====

# assayed.system: IR (NIH-3T3 cells over expressing human IGF-1R or IR) (Homo sapiens)
# test.description: IR cellular autophosphorylation (DELFIA)
# stated.conditions: NIH-3T3 cells over expressing IR, insulin stimulated
IC50: recorded values

Reference set, count: 2
CCOc1cc(N2CCN(CCS(C)(=O)=O)CC2)ccc1Nc1nccc(-c2c(-c3ccc(OCC)c(C(=O)Nc4c(F)cccc4F)c3)nc3ccccn23)n1 [Example 144]	< 100 nM
COc1cc(N2CCC[C@H](O)C2)ccc1Nc1nccc(-c2c(-c3cccc(C(=O)Nc4c(F)cccc4F)c3)nc3ccccn23)n1 [Example 169]	100 to 500 nM

Pending compound:
Task: Specify measured IC50 for COc1cc(N2CCC(CCS(C)(=O)=O)CC2)c(C)cc1Nc1nccc(-c2c(-c3ccc(OC)c(C(=O)Nc4c(F)cccc4F)c3)nc3ccccn23)n1 [Example 230] .
Result: < 100 nM

====

# System: various cell lines of different tumor origins
# test.description: Inhibition of cell proliferation, InCell Analyzer assay
# Format: cell-based
# stated.conditions: Homo sapiens, SW872, SW872, Sarcoma
# Description: C. Inhibition of Cell Proliferation For InCell Analyser assay, various cell lines of different tumor origins were grown to 70-80% confluency in appropriate culture media containing 10% fetal bovine serum at 37° C. in a 5% CO2 incubator. […] By counting the number of nuclei, the proliferation index of compound treated groups were calculated as a percentage relative to the DMSO control, which was set to 100%. The IC50 values were calculated using model 205 in ExcelFit.
pIC50: −log10 of the molar value.
readout.type: pIC50

Task: Give the reported value of pIC50 for this record: COc1cc(N2CCC(N3CCCCC3)CC2)ccc1Nc1nccc(-c2c(-c3cccc(C(=O)Nc4c(F)cccc4F)c3)nc3ccccn23)n1
Result: 5.30 to 6.00

====

# assayed.system: IR (NIH-3T3 cells over expressing human IGF-1R or IR) (Homo sapiens)
# test.description: IR cellular autophosphorylation (DELFIA)
# stated.conditions: NIH-3T3 cells over expressing IR, insulin stimulated
# Protocol: D. IGF-1R and IR Cellular Autophosphorylation (DELFIA) NIH-3T3 cells over expressing human IGF-1R or IR were plated in 96-well plates (10,000 cells/well) in culture media containing 10% fetal bovine serum and incubated at 37° C. in a 5% CO2 incubator. […] The fluorescence signal for cells treated with compounds was expressed as percent relative to 100% stimulation (IGF-1 or insulin stimulated signal). […]
readout.type: IC50

Task: Look up and report measured IC50 for this entry: COc1cc(N2CCC(N3CCC(CCS(C)(=O)=O)CC3)CC2)ccc1Nc1nccc(-c2c(-c3ccc(OC)c(C(=O)Nc4c(F)cccc4F)c3)nc3ccccn23)n1 [Example 102]
Result: < 100 nM

Task: Give reported IC50 value for Cc1cc(N2CCC(N3CCCCC3)CC2)ccc1Nc1nccc(-c2c(-c3cccc(C(=O)Nc4c(F)cccc4F)c3)nc3ccccn23)n1 [Example 53]
Result: 100 to 500 nM

Task: Could you please provide reported IC50 for COc1cc(N2CCC(N3CCCCC3)CC2)ccc1Nc1nccc(-c2c(-c3cccc(C(=O)Nc4ccc(Cl)cc4F)c3)nc3ccccn23)n1 [Example 45] ? Thanks!
Result: 100 to 500 nM

Task: Input COc1cc(CCCN2CCCCC2)ccc1Nc1nccc(-c2c(-c3ccc(OC)c(C(=O)Nc4c(F)cccc4F)c3)nc3ccccn23)n1 [Example 140] , output reported IC50.
Result: < 100 nM

Task: Give IC50 for the following molecule: COc1cc(N2CCC(N3CCCCC3)CC2)ccc1Nc1nccc(-c2c(-c3cccc(C(=O)Nc4ccc(F)cc4Cl)c3)nc3ccccn23)n1 [Example 44]
Result: 100 to 500 nM

Task: Give reported IC50 value for COc1cc(N2CCC(N3CCCCC3)CC2)ccc1Nc1nccc(-c2c(-c3cccc(C(=O)Nc4c(F)cccc4F)c3)nc3c(F)cccn23)n1 [Example 190]
Result: 100 to 500 nM

Task: Indicate its recorded IC50; the molecule in question is COc1cc(N2CCC(N3CCCCC3)CC2)ccc1Nc1nccc(-c2c(-c3cccc(C(=O)Nc4c(F)cccc4F)c3)nc3cc(C)ccn23)n1 [Example 18]
Result: 100 to 500 nM

Task: Return IC50 (reported value) for this molecule: COc1cc(N2CCC(N3CCN(CCF)CC3)CC2)ccc1Nc1nccc(-c2c(-c3cccc(C(=O)Nc4c(F)cccc4F)c3)nc3ccccn23)n1 [Example 57]
Result: < 100 nM

Task: Look up and state reported IC50 for COc1cc(N2CCC(N3CCN(S(C)(=O)=O)CC3)CC2)ccc1Nc1nccc(-c2c(-c3cccc(C(=O)Nc4c(F)cccc4F)c3)nc3c(C)cccn23)n1 [Example 68]
Result: 100 to 500 nM

Task: Specify IC50 for CCOc1cc(C2CCN(CCS(C)(=O)=O)CC2)ccc1Nc1nccc(-c2c(-c3cccc(C(=O)Nc4c(F)cccc4F)c3)nc3ccccn23)n1 [Example 183] and stop.
Result: < 100 nM

Task: Give reported IC50 value for COc1cc(N2CCC(N3CCN(CCS(C)(=O)=O)CC3)CC2)ccc1Nc1nccc(-c2c(-c3cccc(C(=O)Nc4c(F)cccc4F)c3)nc3c(F)cccn23)n1 [Example 193]
Result: 100 to 500 nM

Task: Hello, please tell me recorded IC50 for this one: COc1cc(N2CCC(N3CCCCC3)CC2)ccc1Nc1nccc(-c2c(-c3cccc(C(=O)Nc4ccc(F)cc4F)c3)nc3ccccn23)n1 [Example 72]
Result: < 100 nM

Task: Read the entry COc1cc(N2CCC(C3CCN(CCF)CC3)CC2)ccc1Nc1nccc(-c2c(-c3ccc(OC)c(C(=O)Nc4c(F)cccc4F)c3)nc3ccccn23)n1 [Example 96] and write its reported IC50.
Result: < 100 nM

Task: // fetch IC50 given entry CCOc1cc(N2CCN(C3CCN(CCS(C)(=O)=O)CC3)CC2)ccc1Nc1nccc(-c2c(-c3cccc(C(=O)Nc4c(F)cccc4F)c3)nc3ccccn23)n1 [Example 92]
Result: < 100 nM
